Tested on: ECC4;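 further: growth inhibition of ECC4 cells, read out with a cell viability assay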
Experiment: cells
Format: functional, cell-based, Homo sapiens
Conditions: ecc4
Description: SANGER: Inhibition of human ECC4 cell growth in a cell viability assay.
Where a SMILES comes first, the peptide text is derived from it. The star is where a group is joined. Cbz = O=C(OCc1ccccc1)*
assay-endpoint: IC50

Data request: Would you kindly share the measured IC50 for CC(C)C[C@@H](C=O)NC(=O)[C@H](CC(C)C)NC(=O)[C@H](CC(C)C)NC(=O)OCc1ccccc1 [MG-132] (Cbz-Leu-Leu-Leu-aldehyde) ?
Data returned: > 1000 nM

###

Test system: THP-1;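 further: growth inhibition of THP-1 cells, read out via a cell viability assay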
Experiment: cells
Type: functional, cell-based, Homo sapiens
Details: Homo sapiens, THP-1
Description: SANGER: Inhibition of human THP-1 cell growth in a cell viability assay.
assay-endpoint: IC50

> print(dat)
                                   molecule  data.value
1  NC(=O)c1cccc(-c2cc(Nc3ccc(OC(F)(F)F)cc3)ncn2)c1   > 1.28 µM

# context switch: different molecule, same IC50
Data request: Would you kindly share the measured IC50 for C=CC(=O)N1CCCC(Nc2nc(Nc3ccc(N(C)C(=O)CC)cc3)nc3[nH]cnc23)C1 (configuration not stated) ?
Data returned: > 10.2 µM
